inhibition values for the compounds below.
system: HeLa; test: Inhibition of SERCA in human HeLa cells assessed as increase in cytosolic calcium level at 3.81 x 10^-11M measured over 300 secs by Fluo-4 NW dye based FLIPR analysis relative to control; format: cell-based

SMILES DATA	TESTED TARGET	inhibition
C/C=C(/C)C(=O)O[C@H]1C(C)=C2[C@H]([C@@H]1OC(=O)CCCCC)[C@@](C)(OC(C)=O)C[C@H](OC(=O)CCC)[C@@]1(O)[C@H]2OC(=O)[C@@]1(C)O	HeLa	-2.5 to 2%
CCCCCCCC(=O)O[C@H]1[C@H]2C(=C(C)[C@@H]1OC(=O)c1cccs1)[C@@H]1OC(=O)[C@@](C)(O)[C@@]1(O)[C@@H](OC(=O)CCC)C[C@]2(C)OC(C)=O	HeLa	-5.9 to 0.6%

Please examine the following record next.
Fill blank: measured inhibition of the compound C/C=C(/C)C(=O)O[C@H]1C(C)=C2[C@H]([C@@H]1OC(=O)CCCCCCC)[C@@](C)(OC(C)=O)C[C@H](OC(=O)[C@@H](C)CC)[C@@]1(O)[C@H]2OC(=O)[C@@]1(C)O is ____.
-2.2 to 2.4%
